inhibition at 10 µM values by entry
Target under test: UniProtKB P00736
Sequence (P00736 464-705 limits assumed): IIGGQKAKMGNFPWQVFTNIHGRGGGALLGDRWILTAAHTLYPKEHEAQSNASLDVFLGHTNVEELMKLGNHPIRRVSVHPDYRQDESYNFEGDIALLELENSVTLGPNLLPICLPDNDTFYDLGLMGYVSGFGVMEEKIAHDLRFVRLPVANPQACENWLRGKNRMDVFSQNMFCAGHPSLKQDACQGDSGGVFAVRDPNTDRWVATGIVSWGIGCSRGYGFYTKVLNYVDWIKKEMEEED
Sequence (P00736 18-463 partner limits assumed): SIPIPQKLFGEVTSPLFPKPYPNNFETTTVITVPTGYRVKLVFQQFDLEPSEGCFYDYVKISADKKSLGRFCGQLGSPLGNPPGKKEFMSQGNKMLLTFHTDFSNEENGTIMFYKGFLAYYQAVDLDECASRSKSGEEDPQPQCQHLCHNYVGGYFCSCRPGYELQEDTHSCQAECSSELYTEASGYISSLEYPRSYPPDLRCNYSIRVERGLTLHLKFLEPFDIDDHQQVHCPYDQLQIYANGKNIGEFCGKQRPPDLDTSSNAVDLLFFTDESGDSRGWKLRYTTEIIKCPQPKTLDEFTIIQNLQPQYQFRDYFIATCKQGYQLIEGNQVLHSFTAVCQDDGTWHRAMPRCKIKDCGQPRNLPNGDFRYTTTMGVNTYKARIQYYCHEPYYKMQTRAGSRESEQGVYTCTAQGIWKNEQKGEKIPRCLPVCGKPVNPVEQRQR
Test method notes: Anti-C1 esterase activity, C1r (hydrolysis of AAME)
Assay type: biochemical
Assay conditions: at 1×10^-5 M; read-out: Anti-C1 activity, C1r percent inhibition
Quick reminder: number only, in %, skip the unit.

For orientation, consider the following solved cases.
[
  {
    "Compound": "N=C(N)C=Cc1ccc(OC(=O)c2ccc(OCc3ccccc3)cc2)cc1",
    "Output unit": "%",
    "inhibition at 10 µM": 37
  },
  {
    "Compound": "N=C(N)C=Cc1ccc(OC(=O)C=Cc2cccc(C(F)(F)F)c2)cc1",
    "Output unit": "%",
    "inhibition at 10 µM": 20
  },
  {
    "Compound": "N=C(N)C=Cc1ccc(OC(=O)CCc2ccccc2)cc1",
    "Output unit": "%",
    "inhibition at 10 µM": 10
  },
  {
    "Compound": "CC(C)Cc1ccc(C(C)C(=O)Oc2ccc(C=CC(=N)N)cc2)cc1 (stereo not drawn)",
    "Output unit": "%",
    "inhibition at 10 µM": 38
  },
  {
    "Compound": "N=C(N)C=Cc1ccc(OC(=O)[C@H]2CC[C@H](CN)CC2)cc1",
    "Output unit": "%",
    "inhibition at 10 µM": 46
  }
]

Q: Lab note: need inhibition at 10 µM for `N=C(N)C=Cc1ccc(OC(=O)CCCCCNC(=N)N)cc1` on UniProtKB P00736, anyone have it?
Ans: 28

Q: Lab note: need inhibition at 10 µM for N=C(N)C=Cc1ccc(OC(=O)Cc2ccccc2)cc1 [Compound 13, 4-(β-amidinoethenyl)phenyl phenylacetate] on UniProtKB P00736, anyone have it?
Ans: 21

Q: Lab note: need inhibition at 10 µM for `CCCCCCC(=O)Oc1ccc(C=CC(=N)N)cc1` on UniProtKB P00736, anyone have it?
Ans: 28

Q: Lab note: need inhibition at 10 µM for `N=C(N)C=Cc1ccc(OC(=O)CCCCCNC(=O)OCc2ccccc2)cc1` on UniProtKB P00736, anyone have it?
Ans: 31
